assay: resazurin metabolic signal in HepG2 cells – cell-based, resazurin fluorescence, 24 h, PK04 Diversity Set, profiling panel (AID 1172); details: HepG2 viability, higher = more signal; further: test concentration not given here
# z-score annotations
Give your answer as a number; write no unit.

See these solved cases before continuing.
• COC(=O)c1cccc([C@H]2OC(=CC(=O)OC(C)C)C[C@@H](c3cccc(C(=O)OC)c3)O2)c1 = -0.674
• CCCN1C(=O)[C@]2(CCC(=O)OC(C)(C)C)N=C(c3ccc(OCCCO)cc3)O[C@@H]2c2ccccc21 = -0.154
• CC(C)NC(=O)[C@@H]1c2ccccc2C(=O)N(Cc2ccccc2C(F)(F)F)[C@H]1c1ccc(CO)cc1 = 0.994
• CCOC(=O)C1=CCC(c2cc3ccccc3[nH]2)N(CCN2CC(C(=O)OCC)=CCC2c2cc3ccccc3[nH]2)C1 (configuration not stated) = -0.474
• C[N+](C)(C)CCCC[C@@H]1NC(=O)[C@@H]2C[C@H](C(=O)NCc3ccc(F)cc3)[C@H](c3ccc(O)cc3)N2C1=O = -0.348

// lookup z-score for COc1ccc(C(=O)Nc2ccc(CN3C(=O)[C@@]4(O[C@@H](CCn5cc(CCO)nn5)[C@H]([Si](C)(C)c5ccc(OC)cc5)[C@H]4C)c4ccccc43)cc2)cc1 -3.26

Request: COc1ccc(C#Cc2ccc3c(c2)[C@]2(C(=O)N3)[C@H](C(=O)O)[C@H]3C(=O)O[C@H](c4ccccc4)[C@H](c4ccccc4)N3[C@@H]2c2ccccc2OCCO)cc1 -0.638

Data origin, for the record: PubChem BioAssay
